Quick list: pEC50 per entry.
# Measured on: TEAD1 YAP50-100 (Homo sapiens, UniProt P28347)
# Sequence (P28347 167-426 limits assumed): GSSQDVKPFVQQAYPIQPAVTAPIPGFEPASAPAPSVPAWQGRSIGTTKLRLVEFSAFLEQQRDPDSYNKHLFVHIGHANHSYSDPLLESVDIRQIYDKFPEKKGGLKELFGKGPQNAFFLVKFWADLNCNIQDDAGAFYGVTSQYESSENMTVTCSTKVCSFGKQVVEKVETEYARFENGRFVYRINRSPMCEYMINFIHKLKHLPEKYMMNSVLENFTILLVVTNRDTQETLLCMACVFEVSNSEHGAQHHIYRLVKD
# Method summary: TEAD1-YAP HTRF (TR-FRET) protein-protein interaction assay
# Condition label: TEAD1, YAP peptide 50-100, HTRF; read-out: TEAD1 YAP50-100 HTRF combined: EC50
To interpret pEC50, take it as minus log10 of a concentration measured in moles per litre.

Cc1ccnc(-c2nn3c(=O)cc(-c4ccc(C5CCCCC5)cc4)[nH]c3c2C(=O)N2CC(CF)C2)c1C	7.22
O=C(c1c(C2CNCCO2)nn2c(=O)cc(-c3ccc(C4CCCCC4)cc3)[nH]c12)N1CC(CF)C1 (single isomer, unassigned) [Enantiomer B, Example 63]	7.05
C[C@H]1[C@@H](CF)CN1C(=O)c1c(-c2cnccn2)nn2c(=O)cc(-c3ccc(CC4CCCC4)cc3)[nH]c12 (single isomer, unassigned) [Isomer B, Example 44]	7.52
Cc1nccnc1-c1nn2c(=O)cc(-c3ccc(OC(c4ccccc4)C(F)(F)F)cc3)[nH]c2c1C(=O)N1C[C@H](CF)[C@@H]1C (single isomer, unassigned) [Final product obtained using Enantiomer A from Step 1, Example 56]	6.43

Moving on to another compound below.
Please indicate recorded pEC50 of CC(C)(C)c1ccc(COc2cc(=O)n3nc(-c4cnccn4)c(C(=O)N4CC(CF)C4)c3[nH]2)cc1 measured with TEAD1 YAP50-100 (Homo sapiens, UniProt P28347).
7.30

###

# Measured on: TEAD4 YAP50-100 (Homo sapiens)
# Sequence (Q15561 217-434 limits assumed): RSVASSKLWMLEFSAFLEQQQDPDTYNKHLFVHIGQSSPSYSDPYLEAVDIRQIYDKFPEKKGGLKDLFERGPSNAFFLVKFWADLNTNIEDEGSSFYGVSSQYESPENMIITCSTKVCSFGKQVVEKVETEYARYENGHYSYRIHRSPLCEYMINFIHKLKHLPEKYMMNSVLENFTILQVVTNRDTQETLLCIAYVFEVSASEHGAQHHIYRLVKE
# Method summary: TEAD4-YAP HTRF (TR-FRET) protein-protein interaction assay
# Condition label: TEAD4, YAP peptide 50-100, HTRF; read-out: TEAD4 YAP50-100 HTRF combined: EC50
// assign YES if EC50 falls strictly below 200 nM, else NO (ties count as NO)

O=C(c1c(-c2ncccn2)nn2c(=O)cc(-c3ccc(C4(C5CCCC5)CC4)cc3)[nH]c12)N1CC(CF)C1 [Compound 57]	YES
CCCCCCCCCc1cc(=O)n2nc(-c3nccnc3C)c(C(=O)N3C[C@H](CF)[C@@H]3C)c2[nH]1 [Compound 71]	NO
CN(C)C(=O)c1nn2c(=O)cc(-c3ccc(C4CCCCC4)cc3)[nH]c2c1C(=O)N1CC(CF)C1 [Compound 1]	NO
Cc1nccnc1-c1nn2c(=O)cc(-c3ccc(CC(C)(C)C)cc3)[nH]c2c1C(=O)N1C[C@H](CF)[C@@H]1C (racemic) [Compound 73]	YES
Cc1nccnc1-c1nn2c(=O)cc(-c3ccc(O[C@H](c4ccccc4)C(F)(F)F)cc3)[nH]c2c1C(=O)N1CC(CF)C1 [Compound 68]	NO

Given CC1CCN1C(=O)c1nn2c(=O)cc(-c3ccc(C4CCCCC4)cc3)[nH]c2c1C(=O)N1CC(CF)C1 (single isomer, unassigned) [Enantiomer A, Example 33] , is recorded EC50 strictly lower than 200 nM?
NO

I'd appreciate it if you could check whether COc1nccnc1-c1nn2c(=O)cc(-c3ccc(C4CCCCC4)cc3)[nH]c2c1C(=O)N1CC(CF)C1 [Compound 13] has EC50 smaller than 200 nM.
NO

Problem: For the compound Cc1nccnc1-c1nn2c(=O)cc(-c3ccc(C4(F)CCCCC4)cc3)[nH]c2c1C(=O)N1CC(CF)C1 [Compound 59] , is EC50 under 200 nM?
YES

Does this compound meet the criterion EC50 < 200 nM? CCCCCCC/C=C/c1cc(=O)n2nc(-c3nccnc3C)c(C(=O)N3C[C@H](CF)[C@@H]3C)c2[nH]1 [Compound 70]
NO

Please check: EC50 for Cc1nccnc1-c1nn2c(=O)cc(-c3ccc(C4CCCCC4)cc3)[nH]c2c1C(=O)N(C)C [Compound 20] , strictly under 200 nM or not?
NO

Report whether reported EC50 is lower than 200 nM (strictly) for O=C(c1c(-c2ncccn2)nn2c(=O)cc(-c3ccc(CC4CCCC4)cc3)[nH]c12)N1CC(CF)C1 [Compound 24]
YES

Below 200 nM on EC50? Entry Cc1nccnc1-c1nn2c(=O)cc(-c3ccc(CC4CCCC4)cc3)[nH]c2c1C(=O)N1C[C@@H](CF)[C@H]1C (single isomer, unassigned) [Isomer A, Example 42]
NO

###

# Measured on: TEAD1 TAZ (amino acids 13-57) (Homo sapiens)
# Sequence (P28347 167-426 limits assumed): as the sequence (P28347 167-426 limits assumed) above
# Method summary: TEAD1-TAZ HTRF (TR-FRET) protein-protein interaction assay
# Type: binding
# Condition label: TEAD1, TAZ peptide, HTRF
We label by threshold. Values of TEAD1 TAZ HTRF combined: Max % Inhibition strictly beneath 70% are yes. Values of 70% and up are no.

Cc1nccnc1-c1nn2c(=O)cc(-c3ccc(CC(C)(C)C)cc3)[nH]c2c1C(=O)N1C[C@H](CF)[C@@H]1C (racemic) [Compound 73]	yes
Cc1nccnc1-c1nn2c(=O)cc(-c3ccc(-c4ccccc4)cc3)[nH]c2c1C(=O)N1CC(CF)C1 [Compound 60]	no
O=C(c1c(C2CNCCO2)nn2c(=O)cc(-c3ccc(C4CCCCC4)cc3)[nH]c12)N1CC(CF)C1 (single isomer, unassigned) [Enantiomer B, Example 63]	yes

API: query returns whether the molecule falls strictly under 70% in TEAD1 TAZ HTRF combined: Max % Inhibition. Query: CC1CCN1C(=O)c1nn2c(=O)cc(-c3ccc(C4CCCCC4)cc3)[nH]c2c1C(=O)N1CC(CF)C1 (single isomer, unassigned) [Enantiomer B, Example 33]
yes

###

# Measured on: TEAD3 YAP50-100 (Homo sapiens, UniProt Q99594)
# Sequence (Q99594 173-435 limits assumed): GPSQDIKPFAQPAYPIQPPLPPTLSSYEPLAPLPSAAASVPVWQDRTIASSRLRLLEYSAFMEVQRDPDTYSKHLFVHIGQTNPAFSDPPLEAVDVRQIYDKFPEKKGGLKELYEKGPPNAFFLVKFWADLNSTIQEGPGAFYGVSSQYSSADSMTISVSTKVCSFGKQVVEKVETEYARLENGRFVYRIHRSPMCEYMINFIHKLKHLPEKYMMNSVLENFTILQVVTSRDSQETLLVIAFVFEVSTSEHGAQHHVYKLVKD
# Method summary: TEAD3-YAP HTRF (TR-FRET) protein-protein interaction assay
# Condition label: TEAD3, YAP peptide 50-100, HTRF; read-out: TEAD3 YAP50-100 HTRF combined: EC50
Measured EC50 of individual entries
// units = nM; emit number, no label

For orientation, consider the following solved cases.
Cc1nccnc1-c1nn2c(=O)cc(-c3ccc(CC4CCCC4)cc3)[nH]c2c1C(=O)N1C[C@H](CF)[C@@H]1C (single isomer, unassigned) [Isomer B, Example 42]	80
CCCCCCC/C=C/c1cc(=O)n2nc(-c3nccnc3C)c(C(=O)N3C[C@H](CF)[C@@H]3C)c2[nH]1	40

Kindly indicate its recorded EC50. Item: C[C@H]1[C@@H](CF)CN1C(=O)c1c(-c2cnccn2)nn2c(=O)cc(-c3ccc(CC4CCCC4)cc3)[nH]c12 (single isomer, unassigned) [Isomer B, Example 44]
50

Read the entry O=C(c1c(-c2cnco2)nn2c(=O)cc(-c3ccc(C4CCCCC4)cc3)[nH]c12)N1CC(CF)C1 and write its reported EC50.
60

Using known records, supply EC50 for Cc1nccnc1-c1nn2c(=O)cc(-c3ccc(C4CCC(F)(F)CC4)cc3)[nH]c2c1C(=O)N1CC(CF)C1
200

Input CCCCc1ccc(-c2cc(=O)n3nc(-c4nccnc4C)c(C(=O)N4CC(CF)C4)c3[nH]2)cc1 , output reported EC50.
90

###

# Measured on: TEAD3 YAP50-100 (Homo sapiens, UniProt Q99594)
# Method summary: TEAD3-YAP HTRF (TR-FRET) protein-protein interaction assay
# Format: binding
# Condition label: TEAD3, YAP peptide 50-100, HTRF
# Procedure: Purified His-tagged TEAD protein (YAP Binding Domain, amino acids 217-447) is pre-incubated with Europium labelled anti-His antibody tracer (Perkin Elmer Cat #AD0110). […] After 60 minutes, the plate is read on a plate reader using TR-FRET mode with wavelengths of 665 nm/615 nm. […] The potency of compounds as YAP:TEAD or TAZ:TEAD protein-protein interaction (PPi) inhibitors is determined by an IC50 or EC50 value generated using a non-linear four parameter curve fit.
Reported endpoint: TEAD3 YAP50-100 HTRF combined: Max % Inhibition (%)
I only need the number, in %, no unit after it.

Here is how some compounds turned out for TEAD3 YAP50-100 HTRF combined: Max % Inhibition.
O=C(c1c(-c2cnco2)nn2c(=O)cc(-c3ccc(C4CCCCC4)cc3)[nH]c12)N1CC(CF)C1	61.5
O=C(c1c(-c2ncccn2)nn2c(=O)cc(-c3ccc(C4CCCCC4)cc3)[nH]c12)N1CC(CF)C1	64.0
O=C(c1c(-c2cnccn2)nn2c(=O)cc(-c3ccc(C4CCCCC4)c(F)c3)[nH]c12)N1CC(CF)C1	64.0
C[C@H]1[C@@H](CF)CN1C(=O)c1c(-c2ncccn2)nn2c(=O)cc(-c3ccc(CC4CCCC4)cc3)[nH]c12 (single isomer, unassigned) [Isomer A, Example 43]	58.5
CC1CCN1C(=O)c1nn2c(=O)cc(-c3ccc(C4CCCCC4)cc3)[nH]c2c1C(=O)N1CC(CF)C1 (single isomer, unassigned) [Enantiomer B, Example 33]	69.0

Tell me its TEAD3 YAP50-100 HTRF combined: Max % Inhibition given O=C(c1c(-c2ccccn2)nn2c(=O)cc(-c3ccc(C4CCCCC4)cc3)[nH]c12)N1CC(CF)C1 as the entry.
55.0

Quick one: give measured TEAD3 YAP50-100 HTRF combined: Max % Inhibition for C[C@@H]1[C@H](CF)CN1C(=O)c1c(-c2ncccn2)nn2c(=O)cc(-c3ccc(CC4CCCC4)cc3)[nH]c12 (single isomer, unassigned) [Isomer B, Example 43]
66.0

Report TEAD3 YAP50-100 HTRF combined: Max % Inhibition, nothing else, for this compound: O=C(c1c(-c2ncccn2)nn2c(=O)cc(-c3ccc(C4CCCCC4)c(F)c3)[nH]c12)N1CC(CF)C1
60.0

Name the recorded TEAD3 YAP50-100 HTRF combined: Max % Inhibition of the item Cn1cnc(-c2nn3c(=O)cc(-c4ccc(C5CCCCC5)cc4)[nH]c3c2C(=O)N2CC(CF)C2)c1 in your answer.
61.0

Identify measured TEAD3 YAP50-100 HTRF combined: Max % Inhibition corresponding to C[C@H](CO)c1nn2c(=O)cc(-c3ccc(C4CCCCC4)cc3)[nH]c2c1C(=O)N1CC(CF)C1 (single isomer, unassigned) [Enantiomer A, Example 55]
69.5

Check the records and state TEAD3 YAP50-100 HTRF combined: Max % Inhibition for O=C(c1c(-c2nccnc2C(F)(F)F)nn2c(=O)cc(-c3ccc(C4CCCCC4)cc3)[nH]c12)N1CC(CF)C1
71.0

Provide one value: measured TEAD3 YAP50-100 HTRF combined: Max % Inhibition of C[C@@H]1[C@H](CF)CN1C(=O)c1c(-c2cnccn2)nn2c(=O)cc(-c3ccc(C4CCCCC4)cc3)[nH]c12 (single isomer, unassigned) [Isomer B, Example 39]
67.0

Please report the measured TEAD3 YAP50-100 HTRF combined: Max % Inhibition for CCCCCCCCCc1cc(=O)n2nc(-c3nccnc3C)c(C(=O)N3C[C@H](CF)[C@@H]3C)c2[nH]1
61.0

Give me measured TEAD3 YAP50-100 HTRF combined: Max % Inhibition, please, for this compound: O=C(c1c(-c2nccc(C(F)(F)F)n2)nn2c(=O)cc(-c3ccc(C4CCCCC4)cc3)[nH]c12)N1CC(CF)C1
68.5
